- PROTOCOL TEXT: compounds altering Cy5-DNA-NS3h complex signal – biochemical, LOPAC1280, artefact control for HCV NS3 helicase inhibitor project (AID 687037)
- CONDITION DETAILS: Cy5-DNA-NS3h complex fluorescence interference counterscreen
ASSAY METRIC: fluorescence ratio (interference)
No unit in the answer, only the number.

# count of solved cases: 2
- O=C1O/C(=C/Br)CCC1c1cccc2ccccc12 (configuration not stated): 1
- CC(O)C(O)[C@H]1CNc2nc(N)[nH]c(=O)c2N1 (some centres not stated): 1

Need fluorescence ratio (interference) of C[C@H]1CC2C3CCC4=CC(=O)C=C[C@]4(C)[C@@]3(Cl)[C@@H](O)C[C@]2(C)[C@@]1(O)C(=O)CO (some centres not stated) , thanks.
1

Need fluorescence ratio (interference) of CC(=O)SC1CC2=CC(=O)CC[C@]2(C)C2CC[C@@]3(C)C(CC[C@@]34CCC(=O)O4)C12 (some centres not stated) , thanks.
1

Need fluorescence ratio (interference) of `O=c1[nH]ccc2c(O)cccc12` , thanks.
0.9

Need fluorescence ratio (interference) of `C=CCNc1ncnc2ccc(Br)cc12` , thanks.
1

Need fluorescence ratio (interference) of `Oc1ccc(/C=C/c2ccc(/C=C/c3ccc(O)cc3)c(Br)c2)cc1` , thanks.
1

* * *

- PROTOCOL TEXT: viability loss with induced miR-34 in A549 – imaging, A549 dox-inducible miR-34, nuclei and caspase counts, primary screen (AID 1347080)
- CONDITION DETAILS: A549 miR-34 inducible, Hoechst nuclei count, 48 h; measured here: total cells with miR-34 induction; stronger effect = lower value
Entries whose cell count is below 9000 take Condition met; entries at or above 9000 take Condition not met.

Worked examples follow.
• O=C(O)c1ccc(-c2cc(Cl)ccc2Cl)o1 = Condition met
• CCCC(=O)O = Condition met
• COc1cc2c(cc1-c1nnc3ccccn13)OCO2 = Condition met
• COc1ccc(OC)c2c1c(C)cc(=O)n2C = Condition met
• C=C1C(=CC=C2CCC[C@@]3(C)C2CCC3C(C)CCCC(C)(C)O)CC(O)CC1O (stereo partly specified) = Condition not met

Lab note: cell count threshold 9000. Does this compound come in strictly under it? `CC(C)C[C@@H](NC(=O)[C@H](Cc1ccccc1)NC(=O)c1cnccn1)B(O)O`
Condition met

* * *

- PROTOCOL TEXT: galactose survival enhancers in mitochondrial complex I cybrids – cell-based, galactose medium, ATP luminescence, primary screen (AID 1645843);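 note: positive z means more ATP and so rescue of galactose-driven cybrid death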
- CONDITION DETAILS: complex I mutant cybrid cells, 72 h, stronger effect = higher value
Classification by z-score | ranges: lower band (below -0.5), central band (-0.5 to below 0.5), upper band (0.5 or more)

Worked examples follow.
* NC(=O)NC(Cc1ccccc1)C(=O)O (stereo unspecified) | upper band
* CC(Oc1ccc2c(c1)OCO2)C(=O)N1CCCCC1CCN1CCCC1=O (stereo unspecified) | upper band
* CC1(C)CC(CC(=O)N2CCC(n3cc(C(C)(C)O)nn3)CC2)CC(C)(C)N1 | lower band
* CC(C)(C)C(=O)Nc1ccc2c(c1)CC(=O)N2 | lower band
* COc1cc(CN2CCc3c(cc(-c4cccc(F)c4)c(=O)n3CCn3ccc(C)n3)C2)ccc1O | central band
* COC(=O)c1ccccc1O | central band
* Cc1ccccc1-c1cccc(C(=O)c2nccn2C)c1 | lower band
* COC1OC2O[C@@]3(C)CCC4C(C)CCC(C1C)[C@@]24OO3 (stereo partly specified) | central band
* CC(C)(O/N=C(\C(=O)N[C@@H]1C(=O)N2C(C(=O)[O-])=C(C[n+]3ccccc3)CS[C@H]12)c1csc(N)n1)C(=O)O | central band
* CCC(CC)(CCC#N)CNC1CCOC(C)(C)C1 (stereo unspecified) | central band

Just checking, what class would you give COCC1=C(C(=O)OC(C)OC(=O)OC(C)C)N2C(=O)C(NC(=O)C(=NOC)c3csc(N)n3)C2SC1 (stereo unspecified) here?
upper band

* * *

- PROTOCOL TEXT: RCMB18 cell growth, single agent and combined, cisplatin and BGB IC40 combos (AID 1671462);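 note: cells exposed to compound for four days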
- CONDITION DETAILS: RCMB18 medulloblastoma cells, measured here: BGB IC40 combination, at 0.05 µM, stronger effect = higher value
ASSAY METRIC: inhibition (%)
A number alone suffices; assume %.

# count of solved cases: 10
• Nc1ccn(C2CCC(CO)O2)c(=O)n1 (configuration not stated) = -6.98
• NC(=O)c1cccc2cn(-c3ccc(C4CCCNC4)cc3)nc12 (configuration not stated) = -13.7
• Nc1nc(NC2CC2)cc(-c2cccc(Cl)c2Cl)n1 = -3.5
• Cc1ccc([N+](=O)[O-])cc1S(=O)(=O)N(C)/N=C\c1cnc2ccc(Br)cn12 = 19.8
• CC1OC(CC(=O)O)CC2=C1C(=O)c1c(O)cccc1C2=O (configuration not stated) = 97.5
• CC(C)(O)[C@H]1CC[C@@](C)(C2[C@@H](O)C[C@@]3(C)[C@@H]4C[C@H](O)C5C(C)(C)[C@@H](O)CCC56CC46CC[C@]23C)O1 (some centres not stated) = -14.5
• C[C@@H]1O[C@@H](O[C@@H]2[C@@H](O)[C@H](OCCc3ccc(O)c(O)c3)O[C@H](CO)[C@H]2OC(=O)C=Cc2ccc(O)c(O)c2)[C@H](O)[C@H](O)[C@H]1O = -349
• C=C1CCC(O)CC1=CC=C1CCCC2(C)C1CCC2C(C)C=CC(C)C(C)C (configuration not stated) = -24
• O=c1ccn(C2CC(O)C(CO)O2)c(=O)[nH]1 (configuration not stated) = 3.1
• Cn1cc(-c2cnn3c(N)c(Br)c([C@H]4CCCNC4)nc23)cn1 = -33.2

Need inhibition of O=c1[nH]c(=O)n(C2CC(O)C(CO)O2)cc1I (configuration not stated) , thanks.
-1.89

Need inhibition of `O=C1C(=Cc2cccnc2)C(=O)c2ccccc21` , thanks.
-19.1

* * *

- PROTOCOL TEXT: MELAS cybrid and Rieske KO viability enhancers – cell-based, MELAS cybrids, Rieske KO mouse fibroblasts, CellTiter-Glo, primary screen (AID 1508586);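 note: z relative to plate mean and SD of compound and empty wells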
- CONDITION DETAILS: MELAS cybrid survival, low glucose, CellTiter-Glo 48 h; stronger effect = higher value
ASSAY METRIC: z-score
No unit in the answer, only the number.

# count of solved cases: 5
* CN(C)CCSSCCNC(=O)C1CCN(C(=O)CSc2ccc(Cl)cc2)CC1 | -0.0132
* COc1cc(-c2ncn(C=CC(=O)OC(C)C)n2)cc(C(F)(F)F)c1 | -0.00249
* C=CCn1nc(C(=O)N2CCCC2)c2c1CCC(NCc1ccccc1OC(F)(F)F)C2 (stereo not given) | 0.124
* Cc1nsc(NC(=O)N2CCC(C(O)CC(C)C)CC2)n1 (stereo not given) | 0.507
* CC1CN(CC(=O)Nc2ccc3c(c2)Cc2cccc(-c4cc(=O)cc(N5CCOCC5)o4)c2S3)CC(C)O1 (stereo not given) | 2.51

Need z-score of CCC[C@@H]1OC2C[C@H]3[C@@H]4CCC5=CC(=O)C=C[C@]5(C)[C@@H]4C(O)C[C@]3(C)[C@@]2(C(=O)CO)O1 (stereo not given in full) , thanks.
-0.541

Need z-score of `Nc1ncccc1OCc1ccccc1` , thanks.
-0.968

Need z-score of `Cc1cnc(CNC(=O)c2cc(-c3ccccc3)cc(S(=O)(=O)N3CCN(C)CC3)c2)cn1` , thanks.
0.213

* * *

- PROTOCOL TEXT: P. berghei load reduction in hepatocytes – cell-based, HepG2, luciferase luminescence, HepG2 viability, primary screen (AID 624349);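 note: 100% = mean of DMSO negative control wells on the same plate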
- CONDITION DETAILS: P. berghei liver stage in HepG2, luciferase luminescence, concentration not given here; stronger effect = lower value
ASSAY METRIC: parasite load remaining (%)
A number alone suffices; assume %.

- CC(C)(C)NC[C@@H](O)COc1cccc2c1CCCC2=O: 94.5
- O=C(O)c1cc2ccccc2c(Cc2cc3ccccc3c(C(=O)O)c2O)c1O (tested in a mixture with another compound): 58.5
- O=C1NC(=O)c2c1c(-c1ccccc1Cl)cc1[nH]c3ccc(O)cc3c21: 32.6

Need parasite load remaining of O=C(Cc1cccs1)NC1C(=O)N2C(C(=O)[O-])=C(C[n+]3ccccc3)CSC12 (stereo not given) , thanks.
179

Need parasite load remaining of CC[C@@H](C(=O)C(C)[C@@H](O)[C@H](C)CCc1ccc(C)c(O)c1C(=O)O)C1OC(CC)(C2CC[C@](O)(CC)[C@H](C)O2)C[C@@H]1C (stereo not given in full) , thanks.
-0.43

* * *

- PROTOCOL TEXT: BT084 cell growth, single and combined drugs, ICGC_MB145, cisplatin and BGB IC40 combos (AID 1671461);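 note: cells exposed to drugs for 96 hours; 0% = vehicle DMSO and 100% = high DMSO full killing control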
- CONDITION DETAILS: BT084 medulloblastoma cells, drug combinations, cisplatin combination, at 0.5 µM, stronger effect = higher value
ASSAY METRIC: inhibition (%)
A number alone suffices; assume %.

• Cc1cc(C=CC#N)cc(C)c1Nc1ccnc(Nc2ccc(C#N)cc2)n1 = -6.25
• O=C1C(=Cc2cccnc2)C(=O)c2ccccc21 = -1.5
• CC(C=CC(=O)NO)=CC(C)C(=O)c1ccc(N(C)C)cc1 (stereo not given) = 101
• O=C1N=c2ccccc2=C1c1c(O)[nH]c2ccccc12 = -4.64
• O=c1[nH]c(=S)[nH]c2nc(-c3ccccc3)c(-c3ccccc3)nc12 = -10.5

Need inhibition of `Cc1ccc(NC(=O)CCCCCC(=O)Nc2ccccc2N)cc1` , thanks.
8.17

meta.source: PubChem BioAssay
